Reference source for all entries: the supplement of paper PMC4466140

Target: ScLsb2
Experiment: SPOT peptide array binding signal intensity (averaged, normalized) (arbitrary units (background-subtracted, floor 0; scale differs between SH3 domains)); higher = stronger binding of the SH3 domain to the peptide
Below is a list of entries, each paired with its recorded SPOT peptide array binding signal intensity value.
Lab note: jot the number down without any unit.

Name the reported SPOT peptide array binding signal intensity value associated with the binder SSAAPPPPPRRATPE
49.5

Tell me the measured SPOT peptide array binding signal intensity of FPPKRKPLLRPQRSD , please.
30
